tested on: HCC827-Luc; test: Induction of apoptosis in human HCC827-Luc cells expressing FHIT assessed as reduction in cell viability measured after 24 hrs by CCK-8 assay; assay type: functional, cell-based
Active and inactive are the calls of the source. The calls are words filed in the database; no cut-off is given here.
Write down the outcome that applies. Available outcomes: active, inactive

Q: Call for entry Cc1c(OCC#N)ccc2c3c(c(=O)oc12)CCCC3 :
A: inactive

Q: Call for entry Cc1c(OCC(=O)O)ccc2c3c(c(=O)oc12)CCCC3 :
A: inactive

Q: Call for entry Cc1c(OCC(=O)NO)ccc2c3c(c(=O)oc12)CCCC3 :
A: active

Q: Call for entry Cc1c(OCc2nn[nH]n2)ccc2c3c(c(=O)oc12)CCCC3 :
A: inactive

----------
tested on: NCI-H460-Luc; assay: Induction of apoptosis in human NCI-H460-Luc cells weakly expressing FHIT assessed as reduction in cell viability measured after 24 hrs by CCK-8 assay; type: functional, cell-based
The source made the active and inactive calls. The rule behind the calls is not given here.
Write down the outcome that applies. Available outcomes: active, inactive

{"smiles.notation": "Cc1c(OCC(=O)NO)ccc2c3c(c(=O)oc12)CCCC3", "assigned.label": "active"}
{"smiles.notation": "Cc1c(OCc2nn[nH]n2)ccc2c3c(c(=O)oc12)CCCC3", "assigned.label": "inactive"}
{"smiles.notation": "Cc1c(OCC(=O)O)ccc2c3c(c(=O)oc12)CCCC3", "assigned.label": "inactive"}

Consider the additional compound presented here.
Q: Call for entry Cc1c(OCC#N)ccc2c3c(c(=O)oc12)CCCC3 :
A: inactive

----------
target: Bis(5'-adenosyl)-triphosphatase (Homo sapiens); test: Inhibition of recombinant human FHIT assessed as reduction in AP3Aase activity at 50 uM measured after 45 mins by HPLC analysis relative to control
attribute.measured: inhibition (%)
# value in %; strip the unit string

These solved cases illustrate the format of a correct answer.
{"compound": "CN1C(=O)N/C(=C/c2cccn2-c2ccc(C(=O)O)cc2)C1=O", "inhibition / %": 51}
{"compound": "O=C(O)c1ccc2[nH]c(-c3ccnc(-c4cccnc4)c3)nc2c1", "inhibition / %": 95}

response.value for O=C(Cn1cc([N+](=O)[O-])ccc1=O)NC(=O)NCc1ccco1 (field: inhibition) = 59

response.value for Cc1c(OCc2nn[nH]n2)ccc2c3c(c(=O)oc12)CCC(C)C3 (centres undefined) (field: inhibition) = 76
